src = PubChem BioAssay AID1508612

Assay: passive permeability, PAMPA, ADME assay (AID 1508612)
Settings: pH 7.4, 30.0 min, 50.0 µM
What Papp was measured for each of the following?

Completed entries (count: 3):
O=C1CCCC2=C1C(c1[nH]ncc1Cl)N=C(Nc1nc3ccc(F)cc3o1)N2 (stereo not drawn) :: 653 ×10⁻⁶ cm/s
CC(=O)c1c(C)[nH]c(C(=O)Nc2cccc([S+](=O)([O-])N3CC[C@@H](F)C3)c2)c1C :: 199 ×10⁻⁶ cm/s
O=C(Nc1ccc([S+](=O)([O-])Nc2nccs2)cc1)c1ccn[nH]1 :: < 1 ×10⁻⁶ cm/s

For every item below, please supply its Papp.
1. CCN1CCC(N(Cc2ccc3c(c2)OCO3)C(=O)Nc2cc(Cl)ccc2C(=O)OC)CC1
2. COc1ccc(-n2nc(C3CCCN(C(=O)Cc4ccc(F)cc4)C3)[nH]c2=O)cc1 (stereo not drawn)
3. COc1ccccc1CNc1ccc(S(=O)(=O)Nc2nccs2)cc1
4. COc1cccc(O)c1CNc1ccc(S(=O)(=O)Nc2nccs2)cc1
5. CC1=Nc2cc(C(=O)NC3CCCC3)ccc2Sc2ccc(C)cc21
6. CCCN1CNc2c(c(=O)[nH]c(=S)n2CCc2cccc(Cl)c2Cl)C1

Response line:
> 1000 ×10⁻⁶ cm/s
851 ×10⁻⁶ cm/s
512 ×10⁻⁶ cm/s
5.16 ×10⁻⁶ cm/s
> 1000 ×10⁻⁶ cm/s
> 1000 ×10⁻⁶ cm/s

# batch size: 5; output Papp per entry
1. CC(=O)c1c(C)[nH]c(C(=O)Nc2cccc(S(=O)(=O)Nc3cccc(C#N)c3)c2)c1C
2. COCCn1ccc2c(C3=CCOCC3)nc(-c3ccc4c(c3)CNC4=O)cc21
3. Fc1cc(Nc2nc(-c3ccncc3)nc3ccccc23)ccc1OCC(F)(F)F
4. C=C[C@@]1(C)C[C@H](OC(=O)CSC(C)(C)CNC(=O)[C@@H](N)C(C)C)[C@@]2(C)C(C)CC[C@@]3(CCC(=O)[C@@H]32)[C@H](C)[C@H]1O (stereo partly drawn)
5. COc1ccc(Cl)cc1C(=O)Nc1ccc(NC(=O)c2ccco2)cc1

Response line:
["68.9 ×10⁻⁶ cm/s", "71.7 ×10⁻⁶ cm/s", "58.8 ×10⁻⁶ cm/s", "> 1000 ×10⁻⁶ cm/s", "971 ×10⁻⁶ cm/s"]

Your task in this section: give Papp for each listed record.
1. COc1ccc2c(c1)N(C[C@H](C)CN(C)C)c1ccccc1S2
2. Cc1ccc(-n2nc3c(=O)n(CCCC(=O)NC(C)c4ccccc4)nc(C)c3c2C)cc1 (stereo not drawn)

Response line:
1: 902 ×10⁻⁶ cm/s; 2: 695 ×10⁻⁶ cm/s

The following molecules each have a reported value; give each one's Papp.
1. Cn1nnnc1Sc1ncnc2scc(-c3ccccc3F)c12
2. NC1CCN(c2nc(-c3ccc(Br)cc3)cs2)CC1
3. CCOc1ccc(CCNC(=O)c2cc3ncccc3n2Cc2cccc(C)n2)cc1OCC
4. Cc1ccc(NS(=O)(=O)c2c(C)[nH]c(C)c2C(=O)N2CCCC2)cc1Cl
5. CCCCOc1ccc(CNC(=O)c2cc3n(n2)CCCN(Cc2ccc(C)cc2)C3=O)cc1

Response line:
["338 ×10⁻⁶ cm/s", "> 1000 ×10⁻⁶ cm/s", "491 ×10⁻⁶ cm/s", "387 ×10⁻⁶ cm/s", "< 1 ×10⁻⁶ cm/s"]
